test: in vivo; conditions: male, NMRI nu/nu, mouse, iv, 8 mg/kg
recorded_metric: Kp at 4 h

{"smiles_str": "C=CC[C@H]1C(=O)C(C)(C)[C@@H](O)CC(=O)O[C@H](c2ccc3sc(C)nc3c2)C[C@@H]2O[C@]2(C)CCC[C@H](C)[C@@H]1O", "test_result": 27.7}
